These entries and their values trace back to the RepoRT retention time repository (doi:10.1007/s11306-011-0298-z).

Can you tell me LC retention time for the items I'm about to list?
Assay: RP, Waters ACQUITY UPLC HSS T3, 100 × 2.1 mm, 1.8 µm, 30 °C, 0.3 mL/min, estimated dead time 0.73 min; A: water + 0.1% formic acid, pH 3; B: methanol + 0.1% formic acid, pH 3; gradient (min/%B) 0/0 6/0 56/100 60/100
Settings: stereoisomer not certain
Report field: quantity (unit follows the number).

For O=C1c2c(O)cc(O)cc2OC(c2ccc(O)cc2)C1O (stereo not given) [dihydrokaempferol] the compound record lists LC retention time as 27.8 min

For Oc1cc(O)c2cc(OC3OCC(O)C(O)C3O)c(-c3ccc(O)c(O)c3)[o+]c2c1 (stereo not given) [cyanidin-3-arabinoside] the compound record lists LC retention time as 23.1 min

For OCC1OC(Oc2ccccc2)C(O)C(O)C1O (stereo not given) the compound record lists LC retention time as 16.4 min

For COc1cc2ccc(=O)oc2c(OC2OC(CO)C(O)C(O)C2O)c1O (stereo not given) the compound record lists LC retention time as 20.9 min

For N#CC(OC1OC(COC2OC(CO)C(O)C(O)C2O)C(O)C(O)C1O)c1ccccc1 (stereo not given) the compound record lists LC retention time as 19.3 min

For "N[C@@H](Cc1ccccc1)C(=O)O" the compound record lists LC retention time as 11.5 min

For CCCCCCCCCCCCCCCCCC(=O)OCCCC [Butyl stearate] the compound record lists LC retention time as 59.5 min

For "O=Cc1ccco1" the compound record lists LC retention time as 12.2 min

For CCCCCCCCCCCCCCCCCCCCC(=O)OC [Methyl henicosanoate] the compound record lists LC retention time as 60.4 min

For "O=C(O)C=CC(=O)O" the compound record lists LC retention time as 3.54 min
